experiment: yeast display, Sf9 membrane polyspecificity reagent, FACS + sequencing; frameworks hold sequencing errors
Reported Property: polyreactivity (PSR sort gate)

QVQLVESGGGLVQEGGSLRLSCAASGGIFGEYDMGGYRQAPGKERELVAAINWSGGSTYYADSVKGRFTISRDNAKNSVYLQMNSLKPEDTAVYYSAADRGYPRKVDYWGQVTQVTVSS: low polyreactivity
QVQLVESGGGLVQAGVSLRLSCAASGRIKDNVMGWYRQAPGKERELVAAITRYAGRTYYAYSVKGRFTISRDNAKITVYLQMNSLKPVDTAVYYCAAQAERSGYEYWGLGTQVTVSS: low polyreactivity

---

experiment: yeast display, Sf9 membrane polyspecificity reagent, FACS + sequencing; frameworks hold sequencing errors
Reported Property: polyreactivity (PSR sort gate)

Study these solved cases before continuing.
QVQLVESGGGLVQAGGSLRLSCAASGSTFYGNDMGWYRQAPGKERELVAAISSGGSTNYADSVKGRFTISRDNAKNTVYLQMNSLKPEDTAVYYCAADDTPDTMYGSDYWGQGTQVTVSS: low polyreactivity
QVQLVESGGGLVQAGGSLRLSCAASGSNFSSNAMGWYRQAPGKERELVAAISRSGVTTYYADSVKGRFTISRDNAKNTVYLQMNSLKPEDTAVYYCAGQPYSRLYGRYRGFQYKYVYWGHGTQVTVSS: low polyreactivity
QVQLVESGGGLVQAGGSLRLSCAASGSIIGTNVMGWYRQAPGKERELVASISYRDGTTYYADSVKGRFTISRDNAKNTLYLQMNSLKPEDTAVYYCAVANYYSYYWGQGTQVTVSS: low polyreactivity
QVQLVESGGGLVQAGGSLRLSCAASGFTFSYYAMGWYREAPGKERELVAAISQSGGSKYYADSVKGRFIISRDNAKNTVYLQMNSLKPEDTAVYYCNRGLRSHQSDDYWGLGTQVTVSS: high polyreactivity

polyreactivity (PSR sort gate) lookup needed for `QVQLVESGGGLVQAGGSLRLSCAASGSIFARYVMGWYRQAPGKERELVAAISRGGRTKYADSVKGRFTISRDNAKNTVYLQMNSLKPEDTAVYYCAAEPFNGRTDLDYWGQGTQVTVSS` , thanks. high polyreactivity

And `QVQLVESGGGLVQAGGSLRLSCAASGRTFYDYAMGWYRQAHGKERELVAAIRLSGASTYYADSVKGRFTISRDNAKNTVYLQMNSLKPEDTAVYYCAARYGGRVAYRGYSYYYWGQGTQVTVSS` ? high polyreactivity

Then this sequence: `QVHLVESGGGLVQAGGSLRLSCAASGRTFPYNAMGWYRQAPGKERELVATIDSSGTRTFYADSVKGRFTISRDNANNTVYLQMNSLKPEDTAVYYCAKGWYAYKLYGYDYWGQGTQVTVSS` low polyreactivity

Then what about the sequence `QFQLVESGGGLVQAGGSLRLSCAASGRIFYYYAMGWDRQAPGKERELVASINSVGTTTYADSVKGRFTISRDNAKNTVYLQMNSLKPEDTAVYYCARDTGSIYYDGYEYDYWGQGTQVTVSS` ? low polyreactivity

Then this sequence: `QVQLVESGGGLVQAGGSLRLSCAASGITFYRYTMGWYRQAPGKERELVAAITWSGGSTYYADSVKGRFTISRDNAKNTVYLQMNSLKPEDTAVYYCAVYLPYSQRYVHYYYWGQGTQVTVSS` high polyreactivity

Field entry: `QVQLVESGGGLVQAGGSLRLSCAASGSTFDDYAMGWYRQAPGKERELVAAISSSGGRTYYADSVKGRFTISRDNAKNTVYLQMNSLKPEDTAVYYCNADSYRSRGRYEFGRFDYWGQGTQVTVSS` high polyreactivity

Try this sequence too: `QVQLVESGGGLVQAGGSLRLSCAASGYTFSKNTMGWYRQAPGKEREFVAAINWSGGSTYYADSVKGRFTISRDNAKNTVYLQMNSLKPEDTAVYYCAARRGGRRGYDYWGQGTQVTVSS` high polyreactivity

---

assay: yeast display, Sf9 membrane polyspecificity reagent, FACS + sequencing; frameworks hold sequencing errors
Reported Property: polyreactivity (PSR sort gate)

Example sequences with recorded polyreactivity (PSR sort gate):
QVQLVESGGGLVQAGGSLRLSCAASGSIFASYAMGWYRQPPGKERELVAAISIGGTTNYADSVKGRFTISRDNAKNTVYLQMYSLKPEDTAVYYCNAGRWLFNYYYWIYDVRYDYWGQGTQVTVSS: high polyreactivity
QVQLVESGGGLVHAGGSLRLSCAASGSIFKPYVMGWYRQAPGKERELVAAITTSGVRTYYADSVKGRFTISRDNAKNTVYLQMNSLKPEDTAVYYCATRRWSWPQFRTGDYWGQGTQVTVSS: high polyreactivity
QVQHVESGGGLVQAGGSLRLSCAASGAIFWGYAMGWYRQAPGKERELVATISWTGGSTYYADSVKGRFTISRDNAKNTVYLQMNSLKPEDTAVYYCAKVIIHYYYLVNLVDVDYWGQGTQVTVSS: low polyreactivity
QVQLVESGGGLVQAGGSLRLSCAASGRIFFDYAMGWYRQAPGKERELVADISYNGGSTNYADSVKGRFTISRDNAKNTVYLQMNSLKPEDTAVYYCNRAFVPVYDLDYYWGQGTQVTVSS: low polyreactivity
QVQLVESVGGLVQAGGSLRLSCAASGDTFTSYAMGRYRQAPGKVRELVAAISRRGGSTYYAESVKGRFTISRDNAKNTVYLLMNSLKPEDTAFYYCAAKSYSYTEFDYGGQGTQVTVSS: high polyreactivity
QVQLVESGGGLVQAGGSLRLSCAASGRIFRTNTMGWYRQAPGKERELVAAITRGGSTYYADSVKGRFTISRDNAKNTVYLQMNSLKPEDTAVYYCAASRYYNSVHNGGDYWGQGTQVTVSS: high polyreactivity

What value of polyreactivity (PSR sort gate) has been recorded for this entry: `QVQLVESGGGLVQAGGSLRLSCAASGPTFDYYAMGWYRQAPGKERELVAAISYSGGNSYYADSVKGRFTISRDNAKNTVYLQMNSLKPEDTAVYYWAANPAARDGRKTGYFCGQGTQVTVSS` high polyreactivity

Queued: `QVQLVESGGGLVQAGGSLRLSSAASGFIFPAYAMGWYRQAPGKDRELVAAISKSGGRTYYADSVKGRFTISRDNAKNTVYLQMNSLKPEDTAVYYCNKDRYPREQYTWKYAWGYDYWGQGTQVTVSS` high polyreactivity

---

assay: yeast display, Sf9 membrane polyspecificity reagent, FACS + sequencing; frameworks hold sequencing errors
Reported Property: polyreactivity (PSR sort gate)

Consider the worked cases shown below.
QVQLVESGGGLVQAGGSLRLSCAASGFTFGFYAMGWYRQGPGKERELVAASTRSGGTTYYADSVKGRFTISRDNAKNTVYLQMNSLKPEDTAVYYCAADYTKYYRRYYYWGQGTQVTVSS: high polyreactivity
QVQLVESGGGLVQAGGSLRLSCAASGRIFSVYAMGWYRPAPGKERELVAAITRVGSTNYADSVKGRFTISRDNAKNTVYLQMNSLKPEDTAVYYCAASKYGSLSGYWGQGTQVTVSS: high polyreactivity
QVLLVESGGGLVQAAGSLRLSSAASGRIFASYPLGWYRQAPGKERELVAAISKSGGRTYYADSVKGRFTISRDNAKNTVYVQMNSLKPVDTAVYDCAAFFWTRSGTPNFDYWGQGTQVTVSS: high polyreactivity
QVQLVESGGGLVQAGGSLRLSCAASGRISRGYAMGWYRQAPGKERELVAAIDSDGDTNYADSVKGRFTISRDNAKNTVYLQMNSLKPEDTAVYYCNKDGAYKTAYKRWTLYDYWGQGTQVTVSS: low polyreactivity
QVQLVESGGGVVQAGGSLRLSCAASGRTFRSYAMGWYRQAPGKERELVAAISWSGGSTYYADSVKGRFTISRDNAKNTVYLQMNSLKPEDTAVYYCAATVGQRKYQLGYWGQGTQVTVSS: high polyreactivity

For the sequence shown here, `QVQLVESGGGLVQAGGSLRLSCAASGGTLGLNAMGRTRQAPGKEREFVAAINRSGGSTRYADSVKGRFTISRDNAKNTVYLQMISLKPEDTAVYYCNAASWTFQTTPKYDYWGQGTQVTVSS` , give the reported polyreactivity (PSR sort gate). high polyreactivity

Now this one: `QVQLVESGGGLVQAGGSLRLSCAASGFTSRKNAMGWYRQAPGKERELVAAITQSSGRTYYADSVKGRFTISRDNAKNTVYLQMNSLKPEDTAVYYCAARRGGEDDYWGQGTQVTVSS` low polyreactivity

Lookup `QVQLVESGGGLVQAGCSLRLRCAASGFTFYSYAMGWYRQAPGKERELVANITIGGSTYADSVKGRFTISRDNAKNNVYLQMNSLNPEDTAVYYCARGYRVVGDPLYGEYDYWGQGSQVTVSS` low polyreactivity

For `QVQLVESGGGLVQAGGSLRLSCAASGRTLVPYAMGWYRQAPGKERELVAAINSSGGSTYYADSVKGRFTISRDNAKNTVYLQMNSLKPEDTAVYYCNVQSVHFRLWKDNYWGQGTQVTVSS` then? high polyreactivity

Param item: `QVQIVESGGGLVQAGGSLRLSCAASGIIFYRYAMGWSRQAPGKERELVAAITWSGVSTSYADSVKGRFTISRDNAKNTVYLQMNSLKPEVTAVYDCNKDPGTLYGDMDSWGQGTQVSVSS` low polyreactivity

Subsequent entry: `QVQLVESGGGLVQAGGSLRLSCAASGYIFADNDMGWYRQAPGKERELVASIDWSGGSTYYADSVKGRFTISRDNAKNTVYLQMNSLKPEDTAVYYCNKGAFGGVSSYIYWAFYSGYDYWGLGTQVTVSS` low polyreactivity
